- assay_target: EGFR (WT) (Homo sapiens)
- Sequence (P00533 25-1210): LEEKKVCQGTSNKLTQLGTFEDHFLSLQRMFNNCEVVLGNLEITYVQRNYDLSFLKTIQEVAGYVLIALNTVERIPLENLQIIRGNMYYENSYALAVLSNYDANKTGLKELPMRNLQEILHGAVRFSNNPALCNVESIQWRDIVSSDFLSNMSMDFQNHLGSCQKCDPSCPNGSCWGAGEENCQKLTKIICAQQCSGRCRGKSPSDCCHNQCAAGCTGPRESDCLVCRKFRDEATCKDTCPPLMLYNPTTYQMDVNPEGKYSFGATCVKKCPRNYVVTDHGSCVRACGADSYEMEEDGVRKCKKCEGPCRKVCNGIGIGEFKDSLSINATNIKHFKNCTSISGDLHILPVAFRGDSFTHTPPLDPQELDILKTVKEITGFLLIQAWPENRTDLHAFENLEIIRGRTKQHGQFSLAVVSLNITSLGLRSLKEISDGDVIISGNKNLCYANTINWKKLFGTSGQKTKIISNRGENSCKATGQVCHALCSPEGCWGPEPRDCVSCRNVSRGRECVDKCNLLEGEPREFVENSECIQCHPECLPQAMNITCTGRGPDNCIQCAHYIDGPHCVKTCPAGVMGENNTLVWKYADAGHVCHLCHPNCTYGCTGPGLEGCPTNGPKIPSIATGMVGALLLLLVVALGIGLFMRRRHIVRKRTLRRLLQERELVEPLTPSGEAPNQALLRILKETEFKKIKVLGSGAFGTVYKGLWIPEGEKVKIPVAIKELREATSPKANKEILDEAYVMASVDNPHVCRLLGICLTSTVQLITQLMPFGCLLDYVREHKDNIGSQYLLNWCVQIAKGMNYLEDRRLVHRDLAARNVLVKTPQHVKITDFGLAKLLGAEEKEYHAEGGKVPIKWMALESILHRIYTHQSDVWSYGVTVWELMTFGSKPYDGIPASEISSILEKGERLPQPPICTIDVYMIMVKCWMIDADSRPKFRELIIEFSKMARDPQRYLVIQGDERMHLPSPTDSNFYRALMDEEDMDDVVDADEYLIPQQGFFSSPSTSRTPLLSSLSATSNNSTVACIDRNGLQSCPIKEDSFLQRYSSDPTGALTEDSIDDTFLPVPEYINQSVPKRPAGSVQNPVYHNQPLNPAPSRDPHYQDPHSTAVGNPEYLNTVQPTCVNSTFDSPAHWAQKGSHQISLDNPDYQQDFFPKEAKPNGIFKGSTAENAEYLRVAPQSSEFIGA
metric_name: IC50 (nM)
One number for each entry, in nM.

Cc1cc2cc(n1)-c1cnn(C)c1OCCC[C@@H](C)CN1/C(=N/C2=O)Nc2ccc(N=S(C)(C)=O)c(Cl)c21 ... 212

Switching to the query record.
In: Would you mind telling me what IC50 value was observed for Cc1cc2cc(n1)-c1cnn(C)c1OC[C@H]1CC[C@H](C1)CN1/C(=N/C2=O)Nc2ccc(N=S(C)(C)=O)cc21 (single isomer, unassigned) [WX-027A] ?
Out: 55.8

* * *

- assay_target: EGFR (L858R/T790M/C797S) (Homo sapiens, UniProt P00533, C797S/L858R/T790M)
- Construct: Reaction Biology Corp. (assay performed there)
- Sequence (P00533 25-1210 T790M/C797S/L858R): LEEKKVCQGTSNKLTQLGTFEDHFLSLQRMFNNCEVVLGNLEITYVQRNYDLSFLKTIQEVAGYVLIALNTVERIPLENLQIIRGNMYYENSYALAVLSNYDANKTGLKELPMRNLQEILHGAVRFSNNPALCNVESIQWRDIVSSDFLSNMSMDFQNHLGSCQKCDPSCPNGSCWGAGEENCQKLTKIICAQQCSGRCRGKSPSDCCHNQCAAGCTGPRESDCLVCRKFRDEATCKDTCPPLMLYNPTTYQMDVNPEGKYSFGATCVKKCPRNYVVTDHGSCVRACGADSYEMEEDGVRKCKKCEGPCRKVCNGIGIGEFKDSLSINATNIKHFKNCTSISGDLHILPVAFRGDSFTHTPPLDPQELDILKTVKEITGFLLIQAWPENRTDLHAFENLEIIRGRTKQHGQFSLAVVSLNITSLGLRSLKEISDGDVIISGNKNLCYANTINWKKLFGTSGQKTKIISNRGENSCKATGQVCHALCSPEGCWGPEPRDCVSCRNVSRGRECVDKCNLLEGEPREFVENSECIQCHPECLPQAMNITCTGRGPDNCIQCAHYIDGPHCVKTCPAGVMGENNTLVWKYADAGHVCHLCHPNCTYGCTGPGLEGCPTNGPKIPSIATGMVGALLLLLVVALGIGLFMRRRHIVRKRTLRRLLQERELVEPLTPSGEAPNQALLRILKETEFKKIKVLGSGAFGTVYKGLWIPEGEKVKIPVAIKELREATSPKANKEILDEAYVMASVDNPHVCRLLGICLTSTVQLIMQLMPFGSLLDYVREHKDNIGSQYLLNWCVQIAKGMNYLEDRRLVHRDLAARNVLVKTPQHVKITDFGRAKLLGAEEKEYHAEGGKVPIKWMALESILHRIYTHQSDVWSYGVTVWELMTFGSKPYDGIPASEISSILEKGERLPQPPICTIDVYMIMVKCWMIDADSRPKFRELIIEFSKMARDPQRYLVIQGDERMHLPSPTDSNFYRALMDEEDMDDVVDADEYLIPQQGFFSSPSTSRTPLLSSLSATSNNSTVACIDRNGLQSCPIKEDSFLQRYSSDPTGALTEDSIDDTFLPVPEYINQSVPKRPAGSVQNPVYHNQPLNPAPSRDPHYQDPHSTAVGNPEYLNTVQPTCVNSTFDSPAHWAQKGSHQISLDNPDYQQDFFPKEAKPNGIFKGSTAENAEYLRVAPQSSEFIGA
- experimental_protocol: Kinase inhibitory activity, 33P-ATP filtration-binding (Reaction Biology Corp.)
- Format: biochemical
- experimental_setup: ATP 100 μM; read-out: Kinase half-maximal inhibition concentration IC50 EGFR(L858R/T790M/C797S)
Decision: IC50 beneath 2 nM gives label 1; IC50 meeting or exceeding 2 nM gives label 0.

Study these solved cases before continuing.
Cc1cc2cc(n1)-c1cnn(C)c1OC[C@H]1CC[C@H](C1)CN1/C(=N/C2=O)Nc2ccc(N=S(C)(C)=O)cc21 (single isomer, unassigned) [WX-027A] ... label 1
Cc1cc2cc(n1)-c1cnn(C)c1OCCC[C@@H](C)CN1/C(=N/C2=O)Nc2ccc(N=S(C)(C)=O)cc21 [WX-006 (trifluoroacetate)] ... label 1
Cc1cc2cc(n1)-c1cnn(C)c1OCCC[C@@H](C)CN1/C(=N/C2=O)Nc2ccc(N=S(C)(C)=O)c(Cl)c21 ... label 0
Cc1cc2cc(n1)-c1cnn(C)c1OCCC[C@@H](C)CN1/C(=N/C2=O)Nc2ccc(P(C)(C)=O)cc21 [WX-001 (trifluoroacetate)] ... label 1
CCP(=O)(CC)c1ccc2c(c1)N1C[C@H](C)CCCOc3c(cnn3C)-c3cc(cc(C)n3)C(=O)/N=C/1N2 [WX-004 (trifluoroacetate)] ... label 1

For the next question, use this compound.
In: Does the reported IC50 of Cc1cc2cc(n1)-c1cnn(C)c1OCCC[C@@H](C)CN1/C(=N/C2=O)Nc2ccc(P(=O)(C(C)C)C(C)C)cc21 [WX-005 (trifluoroacetate)] stay below 2 nM?
Out: label 1
